For each entry below, report its Kd value.
biological target: T1, human CD33 (human, UniProt P20138 18-259, limits assumed); test: BLI (ForteBio), Fab 100 nM on immobilized CD33
T1 construct: Human CD33 immobilized on the BLI sensor tip or the BIAcore C1 chip; also called Siglec-3
T1 sequence (P20138 18-259 limits assumed): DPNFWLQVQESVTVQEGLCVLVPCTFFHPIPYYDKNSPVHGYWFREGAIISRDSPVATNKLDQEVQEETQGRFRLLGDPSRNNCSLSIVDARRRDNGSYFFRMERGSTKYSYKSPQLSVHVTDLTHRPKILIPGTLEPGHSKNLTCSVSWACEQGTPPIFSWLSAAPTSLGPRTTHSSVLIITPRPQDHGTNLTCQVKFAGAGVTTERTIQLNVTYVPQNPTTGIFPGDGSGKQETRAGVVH
One number for each entry, in nM.

Observe how each entry below is paired with its result.
| binder | outcome_measure | reported |
| --- | --- | --- |
| AB-64.8 (antibody, V domains shown) VH: QVQLVQSGAEVKKPGASVKISCKASGYTFTDYNYHWVRQAPGQGLEWIGFIYPSNGITGYAQKFQHRATLTVDNSTSTAYMELSSLRSEDTAVYYCARSDVDYFDYWGQGTLLTVSS VL: DIVLTQSPDSLAVSLGERATINCRASQDVSTSTYSYMHWYQQKPGQPPKLLIKYASNLESGVPDRFSGSGSGTDFTLTISSLQAEDVAVYYCQHSWEIPLTFGQGTKLEIK | Kd | 0.277 |
| AB-64.7 (antibody, V domains shown) VH: QVQLVQSGAEVKKPGASVKISCKASGYTFTDYNYHWVRQAPGQGLEWIGFIYPSNGITGYAQKFQGRATLTVDNSTSTAYMELSSLRSEDTAVYYCARSDVDYFDYWGQGTLLTVSS VL: DIVLTQSPDSLAVSLGERATINCRASQSVGTSTYSYMHWYQQKPGQPPKLLIKYASNLNSGVPDRFSGSGSGTDFTLTISSLQAEDVAVYYCQHSEEIPLTFGQGTKLEIK | Kd | 0.24 |
| AB-64.4 (antibody, V domains shown) VH: QVQLVQSGAEVKKPGASVKISCKASGYTFTDYNLHWVRQAPGQGLEWIGFIYPSNGITGYAQKFQGRATLTVDNSTSTAYMELSSLRSEDTAVYYCARSDVDYFDYWGQGTLLTVSS VL: DIVLTQSPDSLAVSLGERATINCRASQDVSTSTYSYMHWYQQKPGQPPKLLIKYASYLESGVPDRFSGSGSGTDFTLTISSLQAEDVAVYYCEHSWEIPLTFGQGTKLEIK | Kd | 0.36 |
| AB-64.6 (antibody, V domains shown) VH: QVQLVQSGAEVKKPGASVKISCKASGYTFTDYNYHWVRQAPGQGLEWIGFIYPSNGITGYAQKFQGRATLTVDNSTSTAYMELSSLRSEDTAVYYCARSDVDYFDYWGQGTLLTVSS VL: DIVLTQSPDSLAVSLGERATINCRASQDVSTSTYSYMHWYQQKPGQPPKLLIKYASFLESGVPDRFSGSGSGTDFTLTISSLQAEDVAVYYCQHSWEIPLTFGQGTKLEIK | Kd | 0.336 |

Would you kindly look at the next entry?
Q: Need Kd, item AB-64.5 (antibody, V domains shown) VH: QVQLVQSGAEVKKPGASVKISCKASGYTFTDYNYHWVRQAPGQGLEWIGFIYPSNGITGYAQKFFGRATLTVDNSTSTAYMELSSLRSEDTAVYYCARSDVDYFDYWGQGTLLTVSS VL: DIVLTQSPDSLAVSLGERATINCRASQSVGTSTYSYMHWYQQKPGQPPKLLIKYASNLESGVPDRFSGSGSGTDFTLTISSLQAEDVAVYYCQHSWEIPLTFGQGTKLEIK
Ans: 0.369
